Catalogue of compounds with associated IC50
- Target System: serotonin re-uptake (Rattus norvegicus, UniProt P31652)
- Construct: synaptosome prepared from rat whole brains except the cerebellums; from tissue; host or cells: synaptosomes from rat whole brain except the cerebellum
- Sequence (P31652 whole entry): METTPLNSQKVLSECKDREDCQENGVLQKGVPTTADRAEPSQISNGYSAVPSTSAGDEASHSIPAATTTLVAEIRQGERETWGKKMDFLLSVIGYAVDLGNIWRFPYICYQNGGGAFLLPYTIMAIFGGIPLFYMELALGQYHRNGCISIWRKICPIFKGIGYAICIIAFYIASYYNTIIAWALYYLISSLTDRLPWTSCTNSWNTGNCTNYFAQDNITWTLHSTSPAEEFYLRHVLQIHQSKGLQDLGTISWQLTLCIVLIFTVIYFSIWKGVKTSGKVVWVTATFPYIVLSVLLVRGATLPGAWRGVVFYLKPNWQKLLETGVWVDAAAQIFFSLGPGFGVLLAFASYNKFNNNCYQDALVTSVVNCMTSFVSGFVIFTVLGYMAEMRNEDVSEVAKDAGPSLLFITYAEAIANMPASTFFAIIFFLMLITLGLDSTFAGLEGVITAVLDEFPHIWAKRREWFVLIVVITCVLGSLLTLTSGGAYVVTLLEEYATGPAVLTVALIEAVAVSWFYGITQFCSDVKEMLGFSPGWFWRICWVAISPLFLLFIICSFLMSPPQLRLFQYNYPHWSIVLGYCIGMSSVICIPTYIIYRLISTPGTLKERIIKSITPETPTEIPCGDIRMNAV
- Assay Text: Serotonin re-uptake inhibitory activity (synaptosome, [3H]5-HT)
- Type: biochemical
- Condition Parameters: synaptosome from rat whole brain except cerebellum; [3H]5-HT, 37° C.; read-out: IC50 (nM) Serotonin re-uptake inhibitory activity
Structures can show the parent of a compound that is named as a salt.
Report the value in nM with no unit label.

INSERT INTO measurements (compound, measured_value) VALUES
  ('CNC(CCOc1cccc(F)c1)c1ccc(OC(=O)N(C)C)cc1 (stereo not drawn) [Test Compound 68, hydrochloride]', 145),
  ('CN(C)C(=O)Oc1ccc([C@@H](CCOc2ccc(F)c(F)c2)N(C)C)cc1 [Test Compound 152, hydrochloride]', 67),
  ('CN[C@@H](CCOc1ccc(F)c(F)c1)c1ccc(OC(=O)N(C)C)cc1 [Test Compound 162, hydrochloride]', 594),
  ('CN(C)C(=O)Oc1cccc(C(CCOc2ccc([N+](=O)[O-])cc2)N(C)C)c1 (stereo not drawn) [Test Compound 104, hydrochloride]', 176),
  ('CNC(CCOc1ccc([N+](=O)[O-])cc1Cl)c1ccc(OC(=O)N(C)C)cc1 (stereo not drawn) [Test Compound 124, hydrochloride]', 110);

Hello, I am looking for reported IC50 with serotonin re-uptake (Rattus norvegicus, UniProt P31652) for CNC(CCOc1ccc(F)c(F)c1)c1ccc(OC(=O)N(C)C)cc1 (stereo not drawn) [Test Compound 54, hydrochloride] . Could you help?
166

###

- Target System: serotonin re-uptake (Rattus norvegicus)
- Construct: synaptosome prepared from rat whole brains except the cerebellums; from tissue; host or cells: synaptosomes from rat whole brain except the cerebellum
- Assay Text: Serotonin re-uptake inhibitory activity (synaptosome, [3H]5-HT)
- Format: biochemical
- Condition Parameters: synaptosome from rat whole brain except cerebellum; [3H]5-HT, 37° C.; read-out: IC50 (nM) Serotonin re-uptake inhibitory activity
Where a name gives a salt, the structure may show the parent alone.
Test Readout: IC50 (nM)
Report the value in nM with no unit label.

INSERT INTO assay_data (compound, target_system, unit_label, measured_value) VALUES
  ('CN(C)C(=O)Oc1ccc2c(c1)CCN(C)[C@@H]2CCOc1ccc([N+](=O)[O-])cc1Cl [Test Compound 190, hydrochloride]', 'serotonin re-uptake (Rattus norvegicus)', 'nM', 460),
  ('CN(C)C(=O)Oc1ccc2c(c1)C(CCOc1ccc(Cl)cc1)N(C)CC2 (stereo not drawn) [Test Compound 191, hydrochloride]', 'serotonin re-uptake (Rattus norvegicus)', 'nM', 520);

# ---- query compound ----
What IC50 value was documented for this compound, CN(C)C(=O)Oc1ccc2c(c1)C=CCN(C)[C@H]2CCOc1ccc([N+](=O)[O-])cc1 [Test Compound 200, hydrochloride] ?
930

The reported numbers originate from patent US7504393B2.
